Molecular target: 5-HT transporter (Rattus norvegicus)
Construct: from tissue; host or cells: rat medulla and pons synaptosomes (P2 fraction)
Sequence (P31652 whole entry): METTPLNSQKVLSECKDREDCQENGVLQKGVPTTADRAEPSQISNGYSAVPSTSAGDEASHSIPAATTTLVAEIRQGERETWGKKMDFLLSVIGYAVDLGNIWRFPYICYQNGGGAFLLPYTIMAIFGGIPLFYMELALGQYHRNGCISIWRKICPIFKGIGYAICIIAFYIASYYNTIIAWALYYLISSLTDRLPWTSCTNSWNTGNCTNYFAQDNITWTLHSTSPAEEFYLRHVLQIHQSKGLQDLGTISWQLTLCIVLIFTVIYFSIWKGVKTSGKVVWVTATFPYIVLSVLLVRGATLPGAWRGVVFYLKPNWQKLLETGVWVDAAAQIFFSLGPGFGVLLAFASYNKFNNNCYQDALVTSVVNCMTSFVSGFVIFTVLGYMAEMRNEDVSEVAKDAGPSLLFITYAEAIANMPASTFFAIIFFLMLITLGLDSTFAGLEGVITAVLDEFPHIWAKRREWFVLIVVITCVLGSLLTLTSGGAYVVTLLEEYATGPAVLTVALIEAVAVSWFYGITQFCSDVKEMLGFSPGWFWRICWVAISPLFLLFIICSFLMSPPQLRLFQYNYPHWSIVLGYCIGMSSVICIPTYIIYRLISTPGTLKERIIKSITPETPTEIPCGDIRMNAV
Test: 5-HT uptake inhibition in rat brain synaptosomes (medulla and pons)
Assay type: biochemical
A collection of compounds and their measured inhibition at 1 µM
Measurement kind: inhibition at 1 µM (%)

• CC1(C)C2CCC1(CS(=O)(=O)N1CCc3nc(NC(=O)c4cccc(F)c4)ncc3C1)C(=O)C2 (stereo not shown) [Example 102] = 63
• CCCC(=O)Nc1ncc2c(n1)CCC(NC(=O)C=Cc1cccc(C(F)(F)F)c1)C2 (stereo not shown) [Example 168] = 46
• CCc1ccc(C(=O)Nc2ncc3c(n2)CCN(C(=O)c2ccc4ncccc4c2)C3)cc1 [Example 173] = 69
• COc1ccc(C(=O)N2CCc3nc(NC(=O)c4cccc(Cl)c4)ncc3C2)cc1OC [Example 119] = 34

---

Biological target: 5-HT transporter (Rattus norvegicus)
Construct: from tissue; host or cells: rat medulla and pons synaptosomes (P2 fraction)
Test: 5-HT uptake inhibition in rat brain synaptosomes (medulla and pons)
Assay type: biochemical
Measurement kind: inhibition at 1 µM (%)

* CC(C)(C)c1ccc(C(=O)Nc2ncc3c(n2)CCN(S(=O)(=O)c2ccc([N+](=O)[O-])cc2)C3)cc1 | 39
* CCCS(=O)(=O)NC1CCc2nc(NC(=O)c3ccc(F)cc3)ncc2C1 (stereo not shown) | 40
* O=C(Nc1ncc2c(n1)CCN(S(=O)(=O)c1ccc(Cl)cc1)C2)c1ccc(Cl)c(Cl)c1 | 47
* CC(C)(C)c1ccc(C(=O)Nc2ncc3c(n2)CCN(S(=O)(=O)c2ccc4c(c2)OCCO4)C3)cc1 | 46
* CCc1ccc(C(=O)Nc2ncc3c(n2)CCN(S(=O)(=O)c2ccccc2Cl)C3)cc1 | 50
* O=C(Nc1ncc2c(n1)CCN(C(=O)c1ccc(OC(F)(F)F)cc1)C2)c1cc(Cl)cc(Cl)c1 | 47
* O=C(Cc1cccc2ccccc12)NC1CCc2nc(NC(=O)c3cccs3)ncc2C1 (stereo not shown) | 39
* O=C(Nc1ncc2c(n1)CCN(C(=O)Cc1c(Cl)cccc1Cl)C2)c1cccc(Cl)c1 | 29
* Cc1ccc(C(=O)N2CCc3nc(NC(=O)c4ccc(C(C)(C)C)cc4)ncc3C2)cc1[N+](=O)[O-] | 66
* CCc1ccc(C(=O)Nc2ncc3c(n2)CCN(C(=O)c2ccc(-n4cccn4)cc2)C3)cc1 | 54
